Molecular target: CDK2-CYCLINA (Homo sapiens, UniProt P24941)
Construct: purchased Millipore
Assay: CDK inhibition assay (microfluidic LabChip, IC50 format)
Type: biochemical
Details: Table 4a; read-out: CDK2 CyclinA IC50
Quantity name: pIC50
A value of pIC50 is the negative decimal logarithm of a concentration given in moles per litre.

Some molecules with recorded pIC50:
CN1CCN(C2CCN(c3ccc(Nc4ncc5c(n4)N(C4CCCC4)C(=O)[C@]4(CCNC4=O)C5)cc3F)CC2)CC1	7.26
O=C1NCC[C@@]12Cc1cnc(Nc3ccc(N4CC5(CNC5)C4)c(F)c3)nc1N(C1CCCC1)C2=O	6.96
COc1cc(N2CCNCC2)ccc1Nc1ncc2c(n1)N(C1CCCC1)C(=O)[C@]1(CCNC1=O)C2	6.11

Can you look up the measured pIC50 of Cc1cc(N2CCN(C)CC2)ccc1Nc1ncc2c(n1)N(C1CCCC1)C(=O)[C@]1(CCNC1=O)C2 for me?
6.47

Can you look up the measured pIC50 of CC(C)N1CCN(c2ccc(Nc3ncc4c(n3)N(C3CCCC3)C(=O)[C@]3(CCNC3=O)C4)cc2)CC1 for me?
7.66

Can you look up the measured pIC50 of CN1CCN(c2ccc(Nc3ncc4c(n3)N(C3CCCC3)C(=O)N(c3ccccc3F)C4)cc2F)CC1 for me?
5.12

Can you look up the measured pIC50 of CN1CCN(c2ccc(Nc3ncc4c(n3)N(C3CCCC3)C(=O)[C@]3(CCNC3=O)C4)c(F)c2)CC1 for me?
6.02

Can you look up the measured pIC50 of O=C1NCC[C@@]12Cc1cnc(N[C@H]3CC[C@H](NC4CCOCC4)CC3)nc1N(C1CCCC1)C2=O for me?
6.82
